# Test system: Acinetobacter junii
# method: Antimicrobial activity against Acinetobacter junii clinical isolate after 18 to 22 hrs by broth microdilution method
# Assay type: functional
readoutKind: MIC50

- compound: "C[C@H]1COc2c(N3CCN(C)CC3)c(F)cc3c(=O)c(C(=O)O)cn1c23.C[C@H]1COc2c(N3CCN(C)CC3)c(F)cc3c(=O)c(C(=O)O)cn1c23.O [LEVOFLOXACIN]"
  readoutKind: "MIC50"
  assayValue: "0.12 mg/L"
- compound: "CCN1CCN(C(=O)N[C@@H](C(=O)N[C@@H]2C(=O)N3[C@@H]2SC(C)(C)[C@@H]3C(=O)O)c2ccccc2)C(=O)C1=O [PIPERACILLIN]"
  readoutKind: "MIC50"
  assayValue: "4 mg/L"
- compound: "C[C@@H](O)[C@H]1C(=O)N2C(C(=O)O)=C(SCCNC=N)C[C@H]12 [IMIPENEM ANHYDROUS]"
  readoutKind: "MIC50"
  assayValue: "0.06 mg/L"
- compound: "CO/N=C(\\C(=O)N[C@@H]1C(=O)N2C(C(=O)O)=C(CSc3nc(=O)c(O)nn3C)CS[C@H]12)c1csc(N)n1 [CEFTRIAXONE]"
  readoutKind: "MIC50"
  assayValue: "2 mg/L"

---

# System: Streptococcus pneumoniae
# method: Antimicrobial activity against penicillin-resistant Streptococcus pneumoniae clinical isolate after 18 to 22 hrs by broth microdilution method
# Assay type: functional
readoutKind: MIC50 (µg/mL)

- molecularString: "CN[C@H](CC(C)C)C(=O)N[C@H]1C(=O)N[C@@H](CC(N)=O)C(=O)N[C@H]2C(=O)N[C@H]3C(=O)N[C@H](C(=O)N[C@H](C(=O)O)c4cc(O)cc(O)c4-c4cc3ccc4O)[C@H](O)c3ccc(c(Cl)c3)Oc3cc2cc(c3O[C@@H]2O[C@H](CO)[C@@H](O)[C@H](O)[C@H]2O[C@H]2C[C@](C)(N)[C@H](O)[C@H](C)O2)Oc2ccc(cc2Cl)[C@H]1O"
  readoutKind: "MIC50"
  assayValue: 0.25
- molecularString: "C[C@H]1COc2c(N3CCN(C)CC3)c(F)cc3c(=O)c(C(=O)O)cn1c23.C[C@H]1COc2c(N3CCN(C)CC3)c(F)cc3c(=O)c(C(=O)O)cn1c23.O"
  readoutKind: "MIC50"
  assayValue: 1
- molecularString: "CCN1CCN(C(=O)N[C@@H](C(=O)N[C@@H]2C(=O)N3[C@@H]2SC(C)(C)[C@@H]3C(=O)O)c2ccccc2)C(=O)C1=O"
  readoutKind: "MIC50"
  assayValue: 2
- molecularString: "CC(=O)NC[C@H]1CN(c2ccc(N3CCOCC3)c(F)c2)C(=O)O1"
  readoutKind: "MIC50"
  assayValue: 1

---

# Test system: Klebsiella pneumoniae
# method: Antimicrobial activity against class A extended spectrum beta-lactamase- producing Klebsiella pneumoniae clinical isolate after 18 to 22 hrs by broth microdilution method
# Type: functional
Entries annotated with measured MIC50
readoutKind: MIC50 (µg/mL)

- molecule: "CCN1CCN(C(=O)N[C@@H](C(=O)N[C@@H]2C(=O)N3[C@@H]2SC(C)(C)[C@@H]3C(=O)O)c2ccccc2)C(=O)C1=O"
  readoutUnit: "µg/mL"
  valueComparator: ">"
  assayValue: 128
- molecule: "C[C@@H](O)[C@H]1C(=O)N2C(C(=O)O)=C(SCCNC=N)C[C@H]12 [IMIPENEM ANHYDROUS]"
  readoutUnit: "µg/mL"
  valueComparator: "="
  assayValue: 0.25
- molecule: "CO/N=C(\\C(=O)N[C@@H]1C(=O)N2C(C(=O)O)=C(CSc3nc(=O)c(O)nn3C)CS[C@H]12)c1csc(N)n1"
  readoutUnit: "µg/mL"
  valueComparator: ">"
  assayValue: 32
- molecule: "C[C@H]1COc2c(N3CCN(C)CC3)c(F)cc3c(=O)c(C(=O)O)cn1c23.C[C@H]1COc2c(N3CCN(C)CC3)c(F)cc3c(=O)c(C(=O)O)cn1c23.O"
  readoutUnit: "µg/mL"
  valueComparator: "="
  assayValue: 0.5
